- System: 786-0
- PROTOCOL SUMMARY: NCI tumour cell line growth inhibition, 48 h
Active and inactive are the calls of the source. Cut-off read from the data, not from the text of the source: active = GI50 up to about 1.1 µM and inactive = higher.
ASSAY METRIC: GI50

Reported GI50 (786-0) for entry O=c1c2cc(Br)cc(Br)c2[nH]c(=S)n1-c1ccccc1 is 99.1 µM (inactive)

Noted GI50 for COC(=O)C1(Cc2ccccc2)Cc2cc3c(cc2C1O)CCC3 (stereo not drawn) , tested on 786-0: 13.6 µM (inactive)

GI50 on 786-0 for CN(C)C1(C#N)CCC2(CC1)OCCO2 is > 100 µM (inactive)

Entry COc1ccc2c(=O)c3cc([N+](=O)[O-])ccc3n(C)c2c1 ; assay system 786-0; GI50 recorded at > 100 µM (inactive)

786-0 GI50 of O=S(=O)(O)c1ccc2c(/N=N/c3ccc(/N=N/c4ccccc4)cc3)c(O)c(S(=O)(=O)O)cc2c1 is > 100 µM (inactive)

Tested system 786-0; GI50 recorded for O=C(Sc1c(-c2ccccc2)c(=O)n(-c2ccccc2)c(=S)n1-c1ccccc1)c1ccc(Cl)cc1 was > 100 µM (inactive)

# GI50 measured on 786-0 for item CCN(CC)c1ccc(/N=C2/C=CC(=O)c3ncccc32)c(C)c1 = 5.02 µM (inactive)

// GI50 (786-0) for CC(=O)C1(O)CCC2(O)C3(O)CC=C4CC(O)CCC4(C)C3CC(OC(=O)c3ccc(O)cc3)C12C.COC1CC(OC2C(C)OC(OC3C(C)OC(OC4CCC5(C)C(=CCC6(O)C5CC(OC(=O)c5ccc(O)cc5)C5(C)C(O)(C(C)=O)CCC65O)C4)CC3OC)CC2OC)OC(C)C1O (stereo not drawn) = 23.7 µM (inactive)

###

- Tested on: U-251
- PROTOCOL SUMMARY: NCI tumour cell line growth inhibition, 48 h
The source made the active and inactive calls. Rule as the data show it: active = GI50 up to about 1.1 µM and inactive = higher.
Give GI50 for every item shown.

Response field GI50 (U-251) for item O=c1oc2ccccc2n1P(=O)(n1c(=O)oc2ccccc21)n1c(=O)oc2ccccc21 : > 100 µM (inactive)

Value sought: GI50, system U-251, item C=C1C(=O)[C@]23C[C@H]1C[C@@H](O)[C@H]2[C@]1(COC3=O)[C@@H](OC(C)=O)CC[C@@](C)(COC(C)=O)[C@H]1C=O . Result: > 50 µM (inactive)

Reported GI50 (U-251) for entry CC[C@](C)(O)C(=O)O[C@H]1C(=O)O[C@@H]2C[C@H]3C(C)=C[C@H](O)[C@@H](O)[C@]3(C)[C@H]3[C@@]4(O)OC[C@]32[C@@H]1[C@@H](C)[C@H]4O is 12 µM (inactive)

Record C=CCP(=O)(CC=C)C(Cl)Cl ; system U-251; GI50 = > 100 µM (inactive)

Measured GI50 (U-251), entry COC[C@@H](/N=C/N1CCc2cc(OC)c(OC)cc2[C@@H]1C)C(C)(C)C : > 100 µM (inactive)

// molecule O=C1c2ccccc2C(=O)c2c1ccc1nc3c(nc21)-c1c2ccccc2cc2cccc-3c12 , assay U-251, GI50 value: 31.3 µM (inactive)

With U-251 as the test system, CCc1nc2cc(/N=N/c3c(O)ccc4ccccc34)ccc2[nH]1 showed GI50 of 16 µM (inactive)

Tested on U-251, the item COc1ccc(C(OC(C)=O)C2C(=C(C#N)C#N)c3ccccc3C2=C(C#N)C#N)cc1 (stereo not given) showed GI50 equal to 41.9 µM (inactive)

# CC(=O)C(C)(C)CCC(C)(C)C(C)=O with U-251: GI50 is > 100 µM (inactive)

Field GI50 (U-251), entry CC(C)(C)C(=O)Nc1ccccc1Br : > 100 µM (inactive)

###

- Test system: DLD-1
- PROTOCOL SUMMARY: NCI tumour cell line growth inhibition, 48 h
Active and inactive are the calls of the source. Cut-off read from the data, not from the text of the source: active = GI50 up to about 1.1 µM and inactive = higher.
The reply should be one of these categories: active, inactive

Dear all, I need the recorded test outcome for CCOC(=O)C12CCCC1(O)N(NC(=O)OC)C(C)=C2C(=O)OC (stereo not given) , thank you. inactive

Please let me know the test result on file for COc1ccc2c(c1)[n+]([O-])c(-c1ccc([N+](=O)[O-])cc1)c(N)[n+]2[O-] . inactive

Hi, do you know how C/C(=N\N=C(/S)N1CC2CCC(CC2)C1)c1cccc[n+]1[O-] came out in this test? inactive

Assay outcome for CC12CCC(=O)N1c1ccc([N+](=O)[O-])cc1N2 (stereo not given) : what was it? inactive

# fetch the recorded call for C=C(C(=O)C(=O)Oc1ccc(Cl)cc1)C(=O)c1ccc(C)cc1 here inactive

Outcome logged for C=CCN1CCC23c4c5ccc(O)c4OC2C(=NN=C2CCC4(O)C6Cc7ccc(O)c8c7C4(CCN6CC=C)C2O8)CCC3(O)C1C5 (stereo not given) in this assay: inactive

Kindly provide the recorded test outcome for the following molecule: Cc1ccc(C)c(NC(=O)c2cccc([N+](=O)[O-])c2O)c1 inactive

I'd appreciate the recorded outcome for Cc1c2cnccc2c(C)c2c1c1ccccc1n2CCCCCCNCc1ccccc1 from this test. active

What was the test verdict on CCOC(=O)CCn1cnc(N)n1 ? inactive

What did this assay record as the result for O=C(/C=C/c1ccc(OCCCOc2ccc(/C=C/C(=O)c3ccccc3)cc2)cc1)c1ccccc1 ? inactive

###

- Tested on: NCI-H460
- PROTOCOL SUMMARY: NCI tumour cell line growth inhibition, 48 h
Calls of active or inactive are those of the source. No stated cut-off is given here; in the data, active = GI50 up to about 1.1 µM and inactive = higher.
Give one outcome, nothing more. List: 1 (yes) (active), 0 (no) (inactive)

Name the outcome recorded for C[C@]12CCC3=NCCN3C1=CC[C@@H]1[C@@H]2CC[C@@]2(C)[C@H]1CC[C@]2(C)O in the assay. 0 (no)

Assay result, entry Cc1c(-c2ccccc2)cc(O)c2nc3ccccc3n12 — outcome? 0 (no)

What did this assay record as the result for CC(C)Oc1c(-c2ccc(F)cc2)c(O)c2c3c1oc(=O)n3C=CC2C (stereo not given) ? 0 (no)

What call does the record list for C1=C(CC2=C[P+](c3ccccc3)(c3ccccc3)C=C(c3ccccc3)O2)OC(c2ccccc2)=C[P+]1(c1ccccc1)c1ccccc1 ? 1 (yes)

// outcome(item) with item = COc1ccccc1/N=C1\SCCN1C(=S)Nc1ccc(S(=O)(=O)/N=C/N(C)C)cc1 0 (no)

###

- System: OVCAR-4
- PROTOCOL SUMMARY: NCI tumour cell line growth inhibition, 48 h
The source made the active and inactive calls. Cut-off read from the data, not from the text of the source: active = GI50 up to about 1.1 µM and inactive = higher.
ASSAY METRIC: GI50

Short answer for CSc1ccc2c(cc1=O)C(NC(=O)c1ccc(OC(C)=O)cc1)CCc1cc(O)c(O)c(O)c1-2 (stereo unspecified) : GI50 was 9.02 µM (inactive)

Kindly note the recorded GI50 for O=c1[nH]c(=S)c2cc3c(=S)[nH]c(=O)n(CCO)c3nc2n1CCO , which is > 100 µM (inactive)

Note to self: GI50 recorded for C=CC1=CC(C)C[C@]1(O)C(=O)OC (stereo partly specified) was < 0.01 µM (active)

Per the record, CCC(=O)O[C@H]1CC[C@H]2[C@@H]3CCC4=C/C(=N/OC(=O)c5cccc6c(=O)c7ccccc7[nH]c56)CC[C@]4(C)[C@H]3CC[C@]12C has GI50 of 38.2 µM (inactive)

Looking up CC(=O)C(C)(C)CCC(C)(C)C(C)=O , I found its GI50 recorded as > 100 µM (inactive)

Measured GI50 of COc1cccc2c1[C@H]1OC(=O)NC1CCCCC2 (stereo partly specified) : > 100 µM (inactive)

Query CCOC(=O)C1N(S(=O)(=O)c2ccc(C)cc2)CCC12c1ccccc1N(C(C)=O)C2c1ccc(OC)c(OC)c1 (stereo unspecified) yields GI50 of 71.1 µM (inactive)

Recorded result, CN(C)Cc1cc(C(=O)/C=C/c2ccc(Cl)c(Cl)c2)cc(CN(C)C)c1O , GI50: 4.61 µM (inactive)

Per the record, CCOC(=O)NC(Nc1ccc(F)cc1)(C(=O)OCC)C(F)(F)F (stereo unspecified) has GI50 of > 50.8 µM (inactive)

The reported value for C/C(=C1/N=C(c2cc([N+](=O)[O-])ccc2Cl)N(c2ccc(Br)cc2)C1=O)c1cc2ccccc2oc1=O in terms of GI50 is 18.3 µM (inactive)

Reported GI50 for O=[N+]([O-])C(=C/c1ccccc1)/C(=C\c1ccccc1)[N+](=O)[O-] was 21.3 µM (inactive)

Recorded GI50 (compound C=Cc1ccc(C)[n+](C[Si](C)(C)O[Si](C)(C)C[n+]2cc(C=C)ccc2C)c1 ): > 100 µM (inactive)

Measured GI50 of CC1=NN=C(N)N/C1=C\C(Sc1ccc(Cl)cc1)c1ccc([N+](=O)[O-])cc1 (stereo unspecified) : > 100 µM (inactive)

Consider CC(C)=CCc1c(O)cc2oc(-c3ccc(O)cc3O)cc(=O)c2c1O . Its measured GI50 is 20.2 µM (inactive)

Entry C[C@]12CC[C@H](O)CC1=CC[C@@H]1C2CC[C@]2(C)c3nn(-c4ccc(F)cc4)nc3CC12 (stereo partly specified) , GI50 reported as 16.6 µM (inactive)

# GI50 of O=C(O)CCCCn1cnc2c(S)ncnc21 = > 100 µM (inactive)

GI50 in this record for NS(=O)(=O)c1cc(C(=O)O)c(O)c2ccccc12 : > 100 µM (inactive)

Briefly, GI50 measured for COc1cccc(C2CC(=O)c3cccn32)c1 (stereo unspecified) : > 100 µM (inactive)

response.value for COC(=O)C(Cc1c[nH]c2ccccc12)NC(=O)C(Cc1c[nH]c2ccccc12)NC(=O)OCc1ccccc1 (stereo unspecified) (field: GI50) = 16.4 µM (inactive)

GI50 reading for CCc1cccc(C(C)CC)c1NC(=O)CC1C(=O)Nc2ccccc2[S+]1[O-] (stereo unspecified) : 18.3 µM (inactive)

For Cc1ccccc1NC(=O)C(=O)c1c(O)c2ccc(O)cc2oc1=O the compound record lists GI50 as > 100 µM (inactive)

# GI50 (compound: O=c1[nH]nc(-c2ccccc2)n1-c1ccncc1 ) is > 100 µM (inactive)

Sure, the documented GI50 for Cc1nc(-c2cc3ccccc3oc2=O)cs1 is > 100 µM (inactive)

// GI50 value for O=C1OC(C2Cc3ccccc3C2=O)c2ccccc21 (stereo unspecified) : > 100 µM (inactive)

Entry Cc1oc2c(c1C)S(=O)(=O)C(C#N)=C(N(C)C)N2 , GI50 reported as > 100 µM (inactive)

The reported value for CCOP(=O)(OCC)/C(C#N)=C/c1cnc(C)[nH]1 in terms of GI50 is > 100 µM (inactive)

Per the record, Cc1cc2nc3c(C#N)c4c(c(-c5ccc(Cl)cc5)n3c2cc1C)CCC4 has GI50 of 38.5 µM (inactive)

Short answer for CC(=O)OCC(OC(C)=O)C(OC(C)=O)C(OC(C)=O)C(=O)CNn1c(-c2ccccc2Cl)nc2ccc(Br)cc2c1=O (stereo unspecified) : GI50 was 87.1 µM (inactive)

// GI50 value for Oc1c([Si](c2ccccc2)(c2ccccc2)c2ccccc2)cc2ccccc2c1-c1c(O)c([Si](c2ccccc2)(c2ccccc2)c2ccccc2)cc2ccccc12 : > 100 µM (inactive)

Noted for C=CC(c1ccccc1)[C@@]1(OC(C)=O)C(=O)C(=O)OC1C1COC(C)(C)O1 (stereo partly specified) : its GI50 reads 14.9 µM (inactive)

// sample CCOc1nc2sc3c(c2c(=O)n1CCSSCCn1c(OCC)nc2sc4c(c2c1=O)CCCC4)CCCC3 , its GI50 was > 100 µM (inactive)

Measured GI50 of C=Cc1cncc(C#N)c1CCc1c(C#N)cncc1C=C : > 10 µM (inactive)

Per the records, this compound ( C=CCCCCCCCCC(=O)ON(Cc1ccc(O)c(OC)c1)C(=O)C(F)(F)F ) has GI50 equal to > 100 µM (inactive)

Data point: Cc1nc2ccccc2[nH]/c1=N/Nc1ccccc1 ; GI50 = 9.66 µM (inactive)

Noted for CCOC(=O)NC(=O)c1cn(CCCO)c(=O)[nH]c1=O : its GI50 reads > 100 µM (inactive)

// GI50 lookup, compound = COCOCc1cc(OCc2ccccc2)c(OC)cc1Br , result: > 100 µM (inactive)

Record summary for NC1(C(=O)O)CCCC1 : reported GI50 = > 625 µM (inactive)

Measured GI50 of Cc1ccc(S(=O)(=O)Oc2cc(S(=O)(=O)O)cc3cc(S(=O)(=O)O)cc(N)c23)cc1 : > 100 µM (inactive)

Sample C/C(=N\NC(=S)N/N=C(\C)c1ccccn1)c1ccccn1 ; GI50 observed: 1.04 µM (active)

The measured GI50 associated with FC(F)(F)c1ccc2c(c1)nc(-c1ccc(Cl)cc1)n2CC1CCCN2CCCCC12 (stereo unspecified) reads 15.8 µM (inactive)

// field: GI50; key: C=C(C(=O)C(=O)Oc1ccc(Cl)cc1)C(=O)c1ccc(C)cc1 ; value = > 100 µM (inactive)

Data credit: ChEMBL document CHEMBL1201862
